These entries and their values trace back to patent US20200399238A1.

test system: rat skeletal muscle cell line, L6; experiment: cells; type: cell-based; conditions: Rattus norvegicus; Table 1; read-out: IC50 Toxicity (L6)
Cut-off 80 µM on IC50: below means Yes, at or above means No.

[
  {
    "Compound": "O=C1/C(=C/c2ccc(Br)cc2)Oc2c1ccc(O)c2O",
    "Class Name": "No"
  },
  {
    "Compound": "CC(=O)N1/C(=C\\c2ccccc2O)C(=O)c2ccccc21",
    "Class Name": "No"
  },
  {
    "Compound": "COc1ccc(/C=C2\\Oc3cc(O)ccc3C2=O)c(OC)c1OC",
    "Class Name": "No"
  },
  {
    "Compound": "O=C1/C(=C/c2cc(Br)ccc2Br)Oc2ccccc21",
    "Class Name": "No"
  },
  {
    "Compound": "O=C1/C(=C/c2ccc(I)cc2)Oc2ccccc21",
    "Class Name": "No"
  },
  {
    "Compound": "O=C1/C(=C/c2c[nH]c3ccccc23)Oc2ccccc21",
    "Class Name": "Yes"
  },
  {
    "Compound": "COc1ccc(/C=C2\\Oc3ccccc3C2=O)c(OC)c1OC",
    "Class Name": "No"
  },
  {
    "Compound": "O=C1/C(=C/c2cccc3[nH]ccc23)Oc2ccccc21",
    "Class Name": "No"
  },
  {
    "Compound": "O=C1/C(=C/c2ccc(C(F)(F)F)cc2)Oc2ccc(Br)cc21",
    "Class Name": "No"
  },
  {
    "Compound": "CC(=O)N1/C(=C\\c2ccc[nH]2)C(=O)c2ccccc21",
    "Class Name": "Yes"
  },
  {
    "Compound": "Cc1[nH]cnc1/C=C1\\Oc2ccccc2C1=O",
    "Class Name": "No"
  },
  {
    "Compound": "O=C1/C(=C/c2cc(Br)c(Br)s2)Oc2ccccc21",
    "Class Name": "No"
  },
  {
    "Compound": "COc1cc(OC)c2c(c1)O/C(=C\\c1cccc([N+](=O)[O-])c1)C2=O",
    "Class Name": "No"
  },
  {
    "Compound": "N#Cc1cccc(/C=C2\\Oc3ccccc3C2=O)c1",
    "Class Name": "No"
  },
  {
    "Compound": "O=C1/C(=C/c2ccc[nH]2)Oc2ccccc21",
    "Class Name": "No"
  },
  {
    "Compound": "O=C1/C(=C/c2cccc(Cl)c2)Oc2ccccc21",
    "Class Name": "Yes"
  },
  {
    "Compound": "CCc1ccc(/C=C2\\Oc3ccccc3C2=O)cc1",
    "Class Name": "No"
  },
  {
    "Compound": "O=C1/C(=C/c2ccccc2)Oc2ccccc21 [Aurone 6615, (Z)-2-benzylidenebenzofuran-3(2H)-one]",
    "Class Name": "No"
  },
  {
    "Compound": "COc1ccc2c(c1)O/C(=C\\c1cccs1)C2=O",
    "Class Name": "No"
  },
  {
    "Compound": "O=C1/C(=C/C=C/c2ccccc2)Oc2ccccc21",
    "Class Name": "Yes"
  },
  {
    "Compound": "N#Cc1ccc(/C=C2\\Oc3ccc(Br)cc3C2=O)cc1",
    "Class Name": "No"
  },
  {
    "Compound": "COc1cccc(/C=C2\\Oc3ccccc3C2=O)c1O",
    "Class Name": "No"
  },
  {
    "Compound": "Cc1ccc(/C=C2\\Oc3cc(O)ccc3C2=O)cc1",
    "Class Name": "Yes"
  },
  {
    "Compound": "O=C1/C(=C/c2ccc(Br)cc2)Oc2ccccc21",
    "Class Name": "No"
  },
  {
    "Compound": "N#Cc1ccccc1/C=C1\\Oc2ccccc2C1=O",
    "Class Name": "No"
  },
  {
    "Compound": "CC(C)c1ccc(/C=C2\\Oc3ccccc3C2=O)cc1",
    "Class Name": "No"
  },
  {
    "Compound": "O=C1/C(=C/c2cccs2)Oc2ccccc21",
    "Class Name": "No"
  },
  {
    "Compound": "O=C1/C(=C/c2ccc(CO)o2)Oc2ccccc21",
    "Class Name": "Yes"
  },
  {
    "Compound": "COc1cc(OC)c2c(c1)O/C(=C\\c1ccc(C#N)cc1)C2=O",
    "Class Name": "No"
  },
  {
    "Compound": "O=C1/C(=C/c2ccc(C(F)(F)F)cc2)Oc2cc(O)ccc21",
    "Class Name": "No"
  },
  {
    "Compound": "O=C1/C(=C/c2ccoc2)Oc2ccccc21",
    "Class Name": "No"
  },
  {
    "Compound": "COc1cccc(/C=C2\\Oc3ccc(C)cc3C2=O)c1O",
    "Class Name": "No"
  },
  {
    "Compound": "CC(C)(C)c1ccc(/C=C2\\Oc3ccccc3C2=O)cc1",
    "Class Name": "No"
  },
  {
    "Compound": "N#Cc1ccc(/C=C2\\Oc3cc(O)ccc3C2=O)cc1",
    "Class Name": "No"
  },
  {
    "Compound": "O=C1/C(=C/c2cc3ccccc3o2)Oc2ccccc21",
    "Class Name": "No"
  },
  {
    "Compound": "CC(=O)N1/C(=C\\c2ccc(CO)o2)C(=O)c2ccccc21",
    "Class Name": "No"
  },
  {
    "Compound": "N=C1/C(=C/c2ccccn2)Oc2ccc(F)cc21",
    "Class Name": "No"
  }
]

---

System: Leishmania amazonensis promastigotes expressing beta-lactamase
Experiment: microbe, parasite or virus in culture
Type: cell-based
Conditions: Leishmania amazonensis, read-out: IC50 L. amaz.
Description: Leishmania amazonensis promastigotes expressing beta-lactamase (Buckner et al., Am. J. Trop. Med. Hyg. 72 (2005) 600-605. doi:72/5/600 [pii]) were cultured in RPMI supplemented with 10% fetal calf serum and 1% pen-strep-glut solution (Sigma) at 27° C. Stationary phase promastigotes were adjusted in fresh media, treated with compounds, and incubated at 37° C. […] Luminescence readings were taken with a spectrophotometer and used to calculate inhibition.
pIC50: −log10 of the molar value.
Please enter Yes where pIC50 is greater than or equal to 5, and No where it is lower.

[
  {
    "Smiles Entry": "CCCCc1ccc(/C=C2\\Oc3ccccc3C2=O)cc1",
    "Class Name": "Yes"
  },
  {
    "Smiles Entry": "N#Cc1ccc(/C=C2\\Oc3cc(O)ccc3C2=O)cc1",
    "Class Name": "Yes"
  },
  {
    "Smiles Entry": "O=C1/C(=C/c2ccncc2)Oc2ccccc21",
    "Class Name": "No"
  },
  {
    "Smiles Entry": "O=C1/C(=C/c2ccc(F)cc2)Oc2ccccc21",
    "Class Name": "No"
  },
  {
    "Smiles Entry": "O=C1/C(=C/c2ccc[nH]2)Oc2cc(O)ccc21",
    "Class Name": "No"
  },
  {
    "Smiles Entry": "O=C1/C(=C/c2ccc(I)cc2)Oc2ccccc21",
    "Class Name": "Yes"
  },
  {
    "Smiles Entry": "COc1cc(/C=C2\\Oc3ccccc3C2=O)ccc1O",
    "Class Name": "Yes"
  },
  {
    "Smiles Entry": "O=C1/C(=C/c2ccc([N+](=O)[O-])cc2)Oc2ccccc21",
    "Class Name": "No"
  },
  {
    "Smiles Entry": "COc1ccc(/C=C2\\Oc3cc(O)ccc3C2=O)c(OC)c1OC",
    "Class Name": "No"
  },
  {
    "Smiles Entry": "O=C1/C(=C/c2ccccc2Cl)Oc2ccccc21",
    "Class Name": "No"
  },
  {
    "Smiles Entry": "COc1ccc(/C=C2\\Oc3cc(O)ccc3C2=O)cc1",
    "Class Name": "Yes"
  },
  {
    "Smiles Entry": "O=C1/C(=C/c2ccsc2)Oc2ccccc21",
    "Class Name": "No"
  },
  {
    "Smiles Entry": "Cc1[nH]cnc1/C=C1\\Oc2ccccc2C1=O",
    "Class Name": "Yes"
  },
  {
    "Smiles Entry": "O=C1/C(=C/c2cccc(F)c2)Oc2ccccc21",
    "Class Name": "No"
  },
  {
    "Smiles Entry": "O=C1/C(=C/c2ccc(CO)o2)Oc2ccccc21",
    "Class Name": "Yes"
  },
  {
    "Smiles Entry": "CC(C)(C)c1ccc(/C=C2\\Oc3ccccc3C2=O)cc1",
    "Class Name": "Yes"
  },
  {
    "Smiles Entry": "Cc1ccc(/C=C2\\Oc3ccccc3C2=O)o1",
    "Class Name": "Yes"
  },
  {
    "Smiles Entry": "O=C1/C(=C/c2cc(Br)cc(Br)c2O)Oc2ccccc21",
    "Class Name": "Yes"
  },
  {
    "Smiles Entry": "Cc1ccc(/C=C2\\Oc3cc(O)ccc3C2=O)cc1",
    "Class Name": "Yes"
  }
]
